Assay read-out pEC50; system under study: Estrogen receptor beta (Rattus norvegicus, UniProt Q62986).
Sequence (Q62986 whole entry): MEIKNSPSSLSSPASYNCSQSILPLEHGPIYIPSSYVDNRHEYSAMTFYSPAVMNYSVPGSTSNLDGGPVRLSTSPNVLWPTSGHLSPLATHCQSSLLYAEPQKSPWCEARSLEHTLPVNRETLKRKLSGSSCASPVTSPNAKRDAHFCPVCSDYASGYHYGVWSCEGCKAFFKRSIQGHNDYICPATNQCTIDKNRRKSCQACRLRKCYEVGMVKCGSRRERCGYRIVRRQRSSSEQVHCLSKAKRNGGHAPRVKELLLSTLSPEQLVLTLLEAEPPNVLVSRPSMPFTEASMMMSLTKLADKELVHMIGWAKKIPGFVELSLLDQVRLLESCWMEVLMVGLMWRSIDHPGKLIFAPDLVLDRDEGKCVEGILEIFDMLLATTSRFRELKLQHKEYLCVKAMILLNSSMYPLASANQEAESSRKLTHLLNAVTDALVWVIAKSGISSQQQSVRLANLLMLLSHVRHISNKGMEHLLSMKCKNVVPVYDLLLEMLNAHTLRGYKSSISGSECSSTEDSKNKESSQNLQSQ
Keep it numeric: pEC50 is minus log10 of the concentration in mol/L.

Completed entries (count: 2):
1) Oc1ccc(-c2c(-c3ccccc3)[nH]c3ccccc23)cc1; 8.96
2) Cn1cccc1-c1nc2ccccc2n1-c1ccc(O)cc1; 7.39

Lookup: Look up pEC50 for this compound: "Oc1ccc(-c2[nH]c(C(F)(F)F)nc2-c2ccccc2)cc1"
Found: 8.17

====

# assayed.target: Estrogen receptor (Homo sapiens)
# Sequence (P03372 whole entry): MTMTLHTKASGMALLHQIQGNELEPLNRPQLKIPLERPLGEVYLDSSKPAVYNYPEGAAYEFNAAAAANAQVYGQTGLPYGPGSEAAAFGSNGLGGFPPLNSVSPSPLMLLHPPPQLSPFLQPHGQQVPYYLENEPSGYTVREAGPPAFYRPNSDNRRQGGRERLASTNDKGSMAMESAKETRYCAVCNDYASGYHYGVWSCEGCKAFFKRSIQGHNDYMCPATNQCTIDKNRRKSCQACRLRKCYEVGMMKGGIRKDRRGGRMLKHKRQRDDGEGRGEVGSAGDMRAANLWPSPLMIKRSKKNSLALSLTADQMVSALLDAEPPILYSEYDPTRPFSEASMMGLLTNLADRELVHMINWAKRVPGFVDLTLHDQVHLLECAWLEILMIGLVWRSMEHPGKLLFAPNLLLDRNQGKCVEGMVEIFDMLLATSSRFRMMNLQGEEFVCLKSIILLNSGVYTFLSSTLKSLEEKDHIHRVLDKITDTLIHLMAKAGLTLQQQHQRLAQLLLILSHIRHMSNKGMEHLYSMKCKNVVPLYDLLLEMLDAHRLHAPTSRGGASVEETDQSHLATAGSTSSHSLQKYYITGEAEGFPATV
Recorded pEC50, one value per entry.
Keep it numeric: pEC50 is minus log10 of the concentration in mol/L.

1. Oc1ccc(-c2[nH]c(C(F)(F)F)nc2-c2ccccc2)cc1; 6.61

Let us examine a further case.
Lookup: Look up pEC50 for this compound: "Oc1ccc(-c2c(-c3ccccc3)[nH]c3ccccc23)cc1"
Found: 7.41
